# Assayed target: Hepatocyte growth factor receptor (Homo sapiens, UniProt P08581)
# Sequence (P08581 whole entry): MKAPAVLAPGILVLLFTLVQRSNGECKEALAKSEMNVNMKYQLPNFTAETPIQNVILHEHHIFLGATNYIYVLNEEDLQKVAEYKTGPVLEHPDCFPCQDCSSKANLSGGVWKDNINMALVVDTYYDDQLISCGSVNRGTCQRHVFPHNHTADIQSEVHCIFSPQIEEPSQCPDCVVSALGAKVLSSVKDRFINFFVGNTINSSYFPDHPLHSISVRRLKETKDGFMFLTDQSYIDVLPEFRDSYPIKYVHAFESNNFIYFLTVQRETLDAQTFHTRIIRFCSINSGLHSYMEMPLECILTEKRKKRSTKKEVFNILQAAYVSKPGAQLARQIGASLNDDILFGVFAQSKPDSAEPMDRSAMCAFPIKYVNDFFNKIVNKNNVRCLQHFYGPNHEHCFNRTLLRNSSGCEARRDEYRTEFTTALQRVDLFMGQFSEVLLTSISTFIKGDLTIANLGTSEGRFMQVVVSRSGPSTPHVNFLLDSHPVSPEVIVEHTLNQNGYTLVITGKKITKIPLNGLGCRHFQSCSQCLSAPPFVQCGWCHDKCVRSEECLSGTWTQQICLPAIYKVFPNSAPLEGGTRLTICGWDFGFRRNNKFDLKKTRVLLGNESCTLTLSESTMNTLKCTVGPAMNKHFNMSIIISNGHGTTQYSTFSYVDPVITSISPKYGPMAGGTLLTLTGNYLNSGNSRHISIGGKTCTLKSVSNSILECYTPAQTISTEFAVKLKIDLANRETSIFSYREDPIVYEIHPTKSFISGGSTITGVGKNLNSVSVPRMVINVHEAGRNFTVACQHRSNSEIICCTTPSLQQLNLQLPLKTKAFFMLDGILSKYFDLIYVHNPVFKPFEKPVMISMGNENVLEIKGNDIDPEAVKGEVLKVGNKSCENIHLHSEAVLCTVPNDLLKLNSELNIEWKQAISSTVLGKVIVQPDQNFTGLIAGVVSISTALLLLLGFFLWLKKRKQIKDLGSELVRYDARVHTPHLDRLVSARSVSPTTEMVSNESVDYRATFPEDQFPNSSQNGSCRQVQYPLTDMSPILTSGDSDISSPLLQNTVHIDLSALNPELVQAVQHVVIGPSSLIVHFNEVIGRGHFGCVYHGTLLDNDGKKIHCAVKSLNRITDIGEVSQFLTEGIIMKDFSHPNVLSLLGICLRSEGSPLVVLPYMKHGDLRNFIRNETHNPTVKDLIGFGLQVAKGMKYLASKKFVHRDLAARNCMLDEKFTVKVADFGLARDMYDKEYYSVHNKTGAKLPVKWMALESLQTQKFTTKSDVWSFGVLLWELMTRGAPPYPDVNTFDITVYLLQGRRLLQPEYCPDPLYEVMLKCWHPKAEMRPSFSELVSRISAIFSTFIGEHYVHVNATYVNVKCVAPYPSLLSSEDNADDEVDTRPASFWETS
# Protocol notes: Inhibition of recombinant c-Met by time resolved-fluorescence resonance energy transfer analysis
pIC50: −log10 of the molar value.
pIC50 below 7 gives F; pIC50 at or above it gives T.

Examples with answers:
stdin: Threshold query (pIC50 >= 7) on Nc1ncc(-c2cnn(C3CCNCC3)c2)cc1-c1nc2ccc(Oc3ncccn3)cc2o1
stdout: T

stdin: // inclusive: pIC50 at least 7? input: Cn1cc(-c2cnc(N)c(-c3nc4cccc(-c5ccccn5)c4o3)c2)cn1
stdout: T

stdin: API: above_or_equal(metric=pIC50, cutoff=7) for item Nc1ccc2oc(-c3cc(-c4cnn(C5CCNCC5)c4)cnc3N)nc2c1
stdout: T

stdin: Tell me whether pIC50 is at least 7 here: Cc1ccc(S(=O)(=O)NC(=O)Nc2ccc3nc(-c4cc(-c5cnn(C6CCNCC6)c5)cnc4N)oc3c2)cc1
stdout: T

stdin: Please check the record CC(=O)N1CCC(n2cc(-c3cnc(N)c(-c4nc5ccc(Cl)cc5o4)c3)cn2)CC1 and state if its pIC50 is at or above 7.
stdout: F

stdin: In plain terms: is recorded pIC50 at least 7 for Nc1ncc(-c2cnn(C3CCNCC3)c2)cc1-c1nc2ccc(Nc3ccc(F)cc3)cc2o1 ?
stdout: F

stdin: Check if pIC50 >= 7 (inclusive). Item: CC(=O)Nc1ccc2oc(-c3cc(-c4cnn(C5CCNCC5)c4)cnc3N)nc2c1
stdout: F

stdin: Assess whether reported pIC50 for CC(=O)N1CCC(n2cc(-c3cnc(N)c(-c4nc5c(C)c(O)c(C)cc5o4)c3)cn2)CC1 sits at 7 or higher.
stdout: T

stdin: Hi team, for CN1CCC(n2cc(-c3cnc(N)c(-c4nc5ccc(F)cc5o4)c3)cn2)CC1 , is the recorded pIC50 at or above 7?
stdout: F

stdin: Hi team, for Nc1ncc(-c2cnn(C3CCNCC3)c2)cc1-c1nc2cc(Cl)cc(F)c2o1 , is the recorded pIC50 at or above 7?
stdout: T

Others:
stdin: Decide: is the reported value of pIC50 for Nc1ncc(-c2cnn(C3CCNCC3)c2)cc1-c1nc2ccc(Oc3ccncn3)cc2o1 equal to or greater than 7?
stdout: T

====

# Assayed target: Aurora kinase A (Homo sapiens, UniProt O14965)
# Sequence (O14965 whole entry): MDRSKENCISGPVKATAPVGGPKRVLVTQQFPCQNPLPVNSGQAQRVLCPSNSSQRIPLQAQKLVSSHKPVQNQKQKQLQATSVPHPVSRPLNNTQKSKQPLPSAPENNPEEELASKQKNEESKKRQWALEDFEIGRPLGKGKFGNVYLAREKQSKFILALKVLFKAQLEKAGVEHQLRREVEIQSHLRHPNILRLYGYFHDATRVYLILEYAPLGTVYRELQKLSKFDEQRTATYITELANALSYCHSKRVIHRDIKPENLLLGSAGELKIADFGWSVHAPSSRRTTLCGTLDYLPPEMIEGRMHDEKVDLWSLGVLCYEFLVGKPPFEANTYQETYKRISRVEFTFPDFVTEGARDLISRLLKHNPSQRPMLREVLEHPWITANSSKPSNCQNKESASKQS
Assay metric: IC50
A complete answer gives the number and then names the unit.

stdin: Kindly indicate its recorded IC50. Item: Nc1ncc(-c2cnn(C3CCNCC3)c2)cc1-c1nc2ccc(O)cc2o1
stdout: 0.09 µM

====

We begin with a simple list: items and their reported IC50.
# Assayed target: Hepatocyte growth factor receptor (Homo sapiens, UniProt P08581)
# Protocol notes: Inhibition of recombinant c-Met by time resolved-fluorescence resonance energy transfer analysis

stdin: In one line, give reported IC50 of the entry Nc1ncc(-c2cnn(C3CCN(CCO)CC3)c2)cc1-c1nc2ccc(F)cc2o1 .
stdout: 90 nM

stdin: Please list IC50 recorded for the molecule Nc1ncc(-c2cnn(C3CCNCC3)c2)cc1-c1nc2ccc(NS(=O)(=O)c3ccc(F)cc3)cc2o1
stdout: 67 nM

stdin: Input CNc1ccc2oc(-c3cc(-c4cnn(C5CCNCC5)c4)cnc3N)nc2c1 , output reported IC50.
stdout: 160 nM

stdin: Check the records and state IC50 for CS(=O)(=O)Nc1ccc2nc(-c3cc(-c4cnn(C5CCNCC5)c4)cnc3N)oc2c1
stdout: 88 nM

stdin: Give IC50 for the following molecule: CC(O)c1ccc2nc(-c3cc(-c4cnn(C5CCNCC5)c4)cnc3N)oc2c1 (stereo not drawn)
stdout: 130 nM

Others:
stdin: Complete the entry with IC50 for CC(C)Nc1cccc2nc(-c3cc(-c4cnn(C5CCNCC5)c4)cnc3N)oc12
stdout: 130 nM

stdin: Tell me IC50 reported for Nc1ncc(-c2cnn(C3CCNCC3)c2)cc1-c1nc2ccc(Nc3ncccn3)cc2o1
stdout: 63 nM

stdin: Return the recorded IC50 value; entry: Nc1ncc(-c2cnn(C3CCNCC3)c2)cc1-c1nc2cccc(O)c2o1
stdout: 110 nM
